The origin of these recorded values is PubChem BioAssay (NCI).

Tested on: SK-OV-3 ovarian
Assay summary: NCI-60 one-dose screen, 48 h
Applied conditions: 10 µM unless noted
About 83,000 compounds went through this panel and 20% of them were active in at least one assay; those are over-represented in the sample as a whole. Activity calls are given as the source filed them. The calls were made as follows: active = growth percent below 10; inactive = the rest.
Respond with a class label; see active, inactive

Please state the recorded outcome for this compound: "CC[C@H](C)[C@H](NC(=O)[C@H]1CCCCN1C)C(=O)N(C)[C@H](C(=O)NC12CC(C(=O)N[C@@H](Cc3ccccc3)C[C@H](C)C(=O)OC)(C1)C2)C(C)C"
inactive

Please state the recorded outcome for this compound: "Cc1cc(N)ccc1N"
inactive

Please state the recorded outcome for this compound: "CC[C@H](C)[C@H](NC(=O)c1ncccn1)C(=O)N(C)[C@H](C[C@@H](OC(C)=O)c1nc(C(=O)N[C@@H](Cc2ccccc2)C[C@H](C)C(=O)OC)cs1)C(C)C"
inactive

Please state the recorded outcome for this compound: "C/C(=N/OC(=O)N(C)C)c1ccc(Cl)c(Cl)c1"
inactive

###

Tested on: CAKI-1 renal
Assay summary: NCI-60 one-dose screen, 48 h (100 = growth as untreated, 0 = no growth, -100 = all killed)
Applied conditions: 10 µM unless noted
This is part of a sample that, as a whole, favours compounds with a hit. Of some 83,000 tested, about 20% had one in any assay. Activity calls are given as the source filed them. Rule for the calls: active = growth percent below 10; inactive = the rest.
Property label: growth

>>> test_result("Nc1cccnc1")
"104% (inactive)"
>>> test_result("Cc1nc2ccccc2c(=O)n1-c1ccccc1F")
"96.4% (inactive)"
>>> test_result("C[C@]12CCC(=O)C[C@@H]1CC[C@@H]1[C@@H]2CC[C@]2(C)[C@@H](OC(=O)N(CCCl)N=O)CC[C@@H]12")
"5.32% (active)"
>>> test_result("CCCN1C(=O)NC(=O)C(CC)(N2C(=O)c3c(F)c(F)c(F)c(F)c3C2=O)C1=O (stereo unspecified)")
"-89.9% (active)"
>>> test_result("N[C@@H](CCC(=O)CCl)C(=O)O")
"97% [20 µM] (inactive)"

As a next step, examine the compound that follows.
Field request: growth | item: COc1ccc(C(C#N)C(C)=O)cc1 (stereo unspecified)
95.3% (inactive)

###

Test system: SK-OV-3 ovarian
Assay summary: NCI-60 one-dose screen, 48 h (100 = growth as untreated, 0 = no growth, -100 = all killed)
Applied conditions: 10 µM unless noted
The panel holds about 83,000 compounds, 20% with a hit somewhere; the sample as a whole holds those more often.
Property label: growth (%)
Provide the reading as a plain figure in %.

>>> test_result("CN(C)c1ccc(C=C2C(=O)NC(=O)NC2=O)cc1")
109
>>> test_result("ClC1OC(Cl)(Cl)C(Cl)(Cl)OC1(Cl)Cl (configuration not stated)")
111
>>> test_result("Cc1cc(NC(=O)NCCCOc2ccc(N3C(N)=NC(N)=NC3(C)C)cc2Cl)ccc1S(=O)(=O)F")
65.3
>>> test_result("O=C(O)C(F)F")
98.5
>>> test_result("CN1CCC2(CC1)C(C#N)C(=O)NC(=O)C2C#N (configuration not stated)")
110

Field request: growth | item: "CC(=O)Cc1ccc2c(c1)OCO2"
107

Field request: growth | item: "COc1ccn(C)c(=O)c1C#N"
91.9
